// data source = the supplement of paper PMC10567573

B1: SEC22B (parent)
chain: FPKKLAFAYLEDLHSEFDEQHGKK

- Variants of: B1
- method: protein stability index of a GFP-peptide fusion (GPS, HEK-293T) (PSI 1-6); higher = more stable;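 further: lentivirally expressed fusions sorted by FACS into six bins by GFP to DsRed ratio, PSI derived from sequencing read proportions per bin multiplied by bin number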
- runConditions: c terminus: a fixed tail appended
metric: protein stability index
Output: the number by itself.

primarySequence | protein stability index
FPKKLAFAYLEDLHSEFDEQHGGK [K23G] | 2.27
FPKKLAFAYLEDLHSEFDEQHGKP [K24P] | 2.29
FPKKLAFAYLEDLHSHFDEQHGKK [E16H] | 2.08

I have this variant here, FPKCLAFAYLEDLHSEFDEQHGKK [K4C] , and I need its recorded protein stability index. 1.78

I have this variant here, FPKKLAFAYLEDQHSEFDEQHGKK [L13Q] , and I need its recorded protein stability index. 3.21

I have this variant here, FPKPLAFAYLEDLHSEFDEQHGKK [K4P] , and I need its recorded protein stability index. 2.45

I have this variant here, FPKKLAFAYLEDLHSEFDEQHGEK [K23E] , and I need its recorded protein stability index. 2.81

I have this variant here, FPKKLAFAYLEDLHSEFDGQHGKK [E19G] , and I need its recorded protein stability index. 2.36
